System: Enterococcus faecium
test protocol: Antimicrobial activity against penicillin-resistant Enterococcus faecium D63r by microdilution method
Type: functional
quantity kind: MIC (µg/mL)
Write the answer as a number in µg/mL, unit excluded.

Consider the worked cases shown below.
CC1(C)S[C@@H]2[C@H](NC(=O)Cc3ccccc3)C(=O)N2[C@H]1C(=O)O : 70
CC1(C)S[C@@H]2[C@H](NC(=O)[C@H](N)c3ccccc3)C(=O)N2[C@H]1C(=O)O : 125

Now turn to the next molecule.
Task: Entry "Nc1nc(/C(=N/O)C(=O)N[C@@H]2C(=O)N3C(C(=O)O)=C(/C=C4\CCN([C@@H]5CCNC5)C4=O)CS[C@H]23)ns1" has what MIC?
Result: 8
